Assay: Oral pharmacokinetics in rats
Format: in vivo
Settings: rat, blood, male SD rats, 15 mg/kg
Procedure: Test Example 2: Measurement of Oral Pharmacokinetics in Rats Male SD rats were orally administered with 15 mg/kg of the compound in the examples of the present disclosure, and blood samples were collected at 0.083, 0.25, 0.5, 1, 2, 4, and 8 hours respectively. After the samples were treated with anticoagulant EDTA-K2 and acetonitrile and centrifuged, a drug concentration analysis was conducted using LC/MS/MS.
Each entry below lists one item and its recorded AUC(0-inf) value.
Use ng·h/mL as the unit, but write only the number.

Illustrative cases are given below, each with its answer.
{"columns": ["Compound", "AUC(0-inf) (ng·h/mL)"],
 "data": [
  ["CC(C)(C)OC(=O)NC(C(=O)N1C[C@H]2[C@@H]([C@H]1C(=O)NC(C#N)c1cncc(Br)c1)C2(C)C)C(C)(C)C (some centres unmarked) [GDI-001]", 1830],
  ["CC(C)(C)[C@H](NC(=O)C(F)(F)F)C(=O)N1C[C@H]2[C@@H]([C@H]1C(=O)NC(C#N)c1cncc(C(F)(F)F)c1)C2(C)C (some centres unmarked) [GDI-012]", 7140],
  ["CC(C)(C)[C@H](NC(=O)C(F)(F)F)C(=O)N1C[C@H]2[C@@H]([C@H]1C(=O)NC(C#N)c1cncc(Br)c1)C2(C)C (some centres unmarked) [GDI-011]", 3470],
  ["CC(C)(C)[C@H](NC(=O)C(F)(F)F)C(=O)N1C[C@H]2[C@@H]([C@H]1C(=O)NC(C#N)c1cncc(C#N)c1)C2(C)C (some centres unmarked) [GDI-014]", 7820]
]}

// below: AUC(0-inf) requested for another compound
Retrieve AUC(0-inf) measured for CC(=O)N[C@H](C(=O)N1C[C@H]2[C@@H]([C@H]1C(=O)NC(C#N)c1cncc3ccccc13)C2(C)C)C(C)(C)C (some centres unmarked) [GDI-006] and print it.
1700

----------
molecular target: SARS-CoV-2 main protease (3CLpro) (Severe acute respiratory syndrome coronavirus 2 (2019-nCoV) (SARS-CoV-2)); assay: Enzyme activity test; details: 200 nM recombinant SARS-CoV-2 main protease, 15 μM fluorescent substrate, pH 7.3
Counter-ions that a name gives are not always drawn.
Values of IC50 strictly less than 20 nM map to Met, and values of at least 20 nM map to Not met.

Examples from the recorded data:
{"columns": ["Compound", "Class"],
 "data": [
  ["CNC(=O)c1cncc(C(C#N)NC(=O)[C@@H]2[C@@H]3[C@H](CN2C(=O)[C@@H](NC(C)=O)C(C)(C)C)C3(C)C)c1 (stereo partly shown)", "Not met"],
  ["CC1(C)[C@@H]2[C@@H](C(=O)NC(C#N)c3cncc(Br)c3)N(C(=O)OCc3ccccc3Cl)C[C@@H]21 (stereo partly shown)", "Not met"],
  ["CC(=O)N[C@H](C(=O)N1C[C@H]2[C@@H]([C@H]1C(=O)NC(C#N)c1cncc(-c3ccn[nH]3)c1)C2(C)C)C(C)(C)C (stereo partly shown)", "Met"],
  ["CC(C)(C)[C@H](N)C(=O)N1C[C@H]2[C@@H]([C@H]1C(=O)NC(C#N)c1cncc(Br)c1)C2(C)C (stereo partly shown) [GDI-002, formate]", "Not met"],
  ["CN(C)c1ccc(S(=O)(=O)N[C@H](C(=O)N2C[C@H]3[C@@H]([C@H]2C(=O)NC(C#N)c2cncc(Br)c2)C3(C)C)C(C)(C)C)cc1 (stereo partly shown)", "Met"],
  ["CC(C)(C)OC(=O)NC(C(=O)N1C[C@H]2[C@@H]([C@H]1C(=O)NC(C#N)c1cncc(Br)c1)C2(C)C)C(C)(C)C (stereo partly shown)", "Not met"],
  ["Cc1ccc(S(=O)(=O)N[C@H](C(=O)N2C[C@H]3[C@@H]([C@H]2C(=O)NC(C#N)c2cncc(Br)c2)C3(C)C)C(C)(C)C)cc1 (stereo partly shown)", "Met"],
  ["CC(=O)N[C@H](C(=O)N1C[C@H]2[C@@H]([C@H]1C(=O)N[C@@H](C#N)c1cncc3ccccc13)C2(C)C)C(C)(C)C", "Not met"]
]}

Find out if reported IC50 for CC(C)(C)[C@H](NS(=O)(=O)C(F)(F)F)C(=O)N1C[C@H]2[C@@H]([C@H]1C(=O)NC(C#N)c1cncc(Br)c1)C2(C)C (stereo partly shown) is less than 20 nM
Met

Say whether its IC50 is strictly beneath 20 nM. Entry: CC(=O)N[C@H](C(=O)N1C[C@H]2[C@@H]([C@H]1C(=O)NC(C#N)c1cncc3ccccc13)C2(C)C)C(C)(C)C (stereo partly shown)
Not met

----------
target: SARS-CoV-2 main protease (3CLpro) (Severe acute respiratory syndrome coronavirus 2 (2019-nCoV) (SARS-CoV-2), UniProt P0DTD1); assay: Enzyme activity test; assay type: biochemical; settings: 200 nM recombinant SARS-CoV-2 main protease, 15 μM fluorescent substrate, pH 7.3
Experimental readout: pIC50
Kindly note that pIC50 refers to -log10 of the concentration in mol/L and answer with the value alone.

Before answering, review these 3 worked examples.
{"columns": ["Compound", "Endpoint result"],
 "data": [
  ["CC(=O)N[C@H](C(=O)N1C[C@H]2[C@@H]([C@H]1C(=O)NC(C#N)c1cncc(C)c1)C2(C)C)C(C)(C)C (some centres unmarked) [GDI-005]", 7.10],
  ["CC(C)(C)[C@H](NC(=O)C(F)(F)F)C(=O)N1C[C@H]2[C@@H]([C@H]1C(=O)NC(C#N)c1cncc(Br)c1)C2(C)C (some centres unmarked) [GDI-011]", 7.11],
  ["CC(=O)N[C@H](C(=O)N1C[C@H]2[C@@H]([C@H]1C(=O)NC(C#N)c1cncc(-c3nc(C(C)C)no3)c1)C2(C)C)C(C)(C)C (some centres unmarked) [GDI-031]", 7.00]
]}

In one line, give reported pIC50 of the entry CC(=O)N[C@H](C(=O)N1C[C@H]2[C@@H]([C@H]1C(=O)NC(C#N)c1cncc(-c3nc(C)no3)c1)C2(C)C)C(C)(C)C (some centres unmarked) [GDI-015] .
6.92

Kindly indicate its recorded pIC50. Item: COC(=O)c1cncc(C(C#N)NC(=O)[C@@H]2[C@@H]3[C@H](CN2C(=O)[C@@H](NC(C)=O)C(C)(C)C)C3(C)C)c1 (stereo in doubt) [GDI-034]
7.21
